biological target: Human immunodeficiency virus type 1 protease (Human immunodeficiency virus 1); experiment: Inhibitory activity against HIV-1 protease in spectrofluorimetric assay
METRIC: pIC50
Keep in mind that pIC50 stands for -log10 of concentration in molar terms.

CPD SMILES | pIC50
COc1ccc(S(=O)(=O)N(CC(C)C)C[C@@H](O)[C@H](Cc2ccccc2)NC(=O)c2cccc(C)c2)cc1 | 7.57
COc1ccc(S(=O)(=O)N(CC(C)C)C[C@@H](O)[C@H](Cc2ccccc2)NC(=O)c2ccccc2C(C)C)cc1 | 7.31
COc1ccc(S(=O)(=O)N(CC(C)C)C[C@@H](O)[C@H](Cc2ccccc2)NC(=O)c2ccccc2O)cc1 | 6.05

Fill in the blank: the reported pIC50 of "COc1ccc(S(=O)(=O)N(CC(C)C)C[C@@H](O)[C@H](Cc2ccccc2)NC(=O)c2ccc(C)cc2)cc1" is ____. 7.82

Record: "COc1ccc(S(=O)(=O)N(CC(C)C)C[C@@H](O)[C@H](Cc2ccccc2)NC(=O)c2ccccc2C(F)(F)F)cc1" 7.43

====

Let's look at some compounds and their measured bioavailability.
experiment: Bioavailability in rat; format: ADME, organism-based; settings: in vivo
A number alone suffices; assume %.

CPD SMILES | bioavailability [%]
COc1ccc(S(=O)(=O)N(CC(C)C)C[C@@H](O)[C@H](Cc2ccccc2)NC(=O)c2cccc(N)c2C)cc1 | 54

Fill in the blank: the reported bioavailability of "COc1ccc(S(=O)(=O)N(CC(C)C)C[C@@H](O)[C@H](Cc2ccccc2)NC(=O)c2cccc(O)c2C)cc1" is ____. 12

====

Let's look at some molecules and their measured Cmax.
test: Maximum concentration was evaluated in rats; format: ADME, organism-based; details: rat, in vivo
A number alone suffices; assume ng/mL.

CPD SMILES | METRIC | VALUE
COc1ccc(S(=O)(=O)N(CC(C)C)C[C@@H](O)[C@H](Cc2ccccc2)NC(=O)c2cccc(N)c2C)cc1 | Cmax | 1800

Fill in the blank: the reported Cmax of "COc1ccc(S(=O)(=O)N(CC(C)C)C[C@@H](O)[C@H](Cc2ccccc2)NC(=O)c2cccc(O)c2C)cc1" is ____. 270

The measurements presented in this section are drawn from ChEMBL document CHEMBL1129709.
